Origin of the recorded values: patent US7329681B2

Target: IMPDH human type II (Homo sapiens, UniProt P12268)
Test: IMPDH activity inhibition assay (spectrophotometric, NADH formation at 340 nm)
Type: biochemical
Conditions: IMPDH human type II, 15 to 50 nM enzyme, 37° C., tight-binding fit (Henderson); read-out: Ki

compound	Ki
COc1cc(NC(=O)Nc2cccc(CNC(=O)OCC3CCCNC3)c2)ccc1-c1cnco1 (stereo not shown)	0.051 to 1 µM
O=C(Nc1ccc(-c2cnco2)cc1)Nc1cccc(Br)c1	0.051 to 1 µM
Cc1cccc(NC(=O)Nc2ccc(-c3cnco3)c(Cl)c2)c1	0.051 to 1 µM
O=C(Nc1cccc([N+](=O)[O-])c1)Nc1ccc(-c2cnco2)c(Cl)c1	0.051 to 1 µM
Cc1cccc(NC(=O)Nc2ccc(-c3ocnc3C)c(Cl)c2)c1	1 to 10 µM
O=C(Nc1ccc(-c2cnco2)cc1)Nc1cccc(S(=O)(=O)Nc2ccccc2)c1	1 to 10 µM
CC(C)(C)OC(=O)NCc1cccc(NC(=O)Nc2cccc(CNC(=O)OC(C)(C)C)c2)c1	1 to 10 µM
